Biological target: human NLRP3 (Homo sapiens, UniProt Q96P20)
Sequence (Q96P20 whole entry): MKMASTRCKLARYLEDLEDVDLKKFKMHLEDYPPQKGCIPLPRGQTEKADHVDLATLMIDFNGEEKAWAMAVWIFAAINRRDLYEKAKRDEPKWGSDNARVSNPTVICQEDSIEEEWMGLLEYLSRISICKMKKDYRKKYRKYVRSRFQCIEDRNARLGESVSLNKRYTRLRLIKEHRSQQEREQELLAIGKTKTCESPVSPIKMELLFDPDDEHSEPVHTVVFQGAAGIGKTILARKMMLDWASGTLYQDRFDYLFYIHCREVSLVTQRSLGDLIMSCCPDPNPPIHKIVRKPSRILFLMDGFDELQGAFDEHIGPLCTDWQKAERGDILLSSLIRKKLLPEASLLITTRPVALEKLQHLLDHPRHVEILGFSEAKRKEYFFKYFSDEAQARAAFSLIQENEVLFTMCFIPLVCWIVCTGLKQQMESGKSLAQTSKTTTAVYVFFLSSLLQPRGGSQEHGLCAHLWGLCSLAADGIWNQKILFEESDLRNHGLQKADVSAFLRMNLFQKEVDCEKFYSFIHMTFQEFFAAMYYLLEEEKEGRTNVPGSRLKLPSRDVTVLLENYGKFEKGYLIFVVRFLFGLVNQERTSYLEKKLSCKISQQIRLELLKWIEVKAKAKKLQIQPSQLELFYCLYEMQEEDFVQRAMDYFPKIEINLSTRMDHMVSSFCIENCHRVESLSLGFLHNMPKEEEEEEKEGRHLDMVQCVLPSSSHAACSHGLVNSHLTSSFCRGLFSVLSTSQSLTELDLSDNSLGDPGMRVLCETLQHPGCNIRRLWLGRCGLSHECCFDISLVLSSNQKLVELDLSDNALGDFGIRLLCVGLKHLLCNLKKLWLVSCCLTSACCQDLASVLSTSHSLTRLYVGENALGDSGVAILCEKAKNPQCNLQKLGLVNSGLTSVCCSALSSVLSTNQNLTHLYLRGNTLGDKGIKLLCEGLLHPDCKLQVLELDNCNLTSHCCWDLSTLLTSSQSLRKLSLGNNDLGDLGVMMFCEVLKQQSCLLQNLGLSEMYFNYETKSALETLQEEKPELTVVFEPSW
Test: Scintillation Proximity (SPA) NLRP3 Assay, displacement of 3H-MCC950
Assay type: binding
Conditions: Table B, activity class; displacement of 3H-MCC950 from human NLRP3
ATTRIBUTE MEASURED: IC50

For each of the compounds below, state IC50.
1. C[C@H]1CCN(c2nnn[nH]2)C[C@@H](NC(=O)N(C)c2c(F)cc(OC(F)(F)F)cc2F)C1 (single isomer, unassigned) [41D*]
2. C[C@@H]1C[C@@H](NC(=O)N(C)c2ccc(OC(F)F)cc2)[C@H]2CC[C@@H]1N2c1nnn[nH]1 (single isomer, unassigned) [42A*]
3. CC1CCN(c2nnn[nH]2)CC(NC(=O)N(C)c2ccc(Cl)cc2)C1 (single isomer, unassigned)
4. C[C@H]1CCN(c2nnn[nH]2)C[C@@H](NC(=O)N(C)c2ccc(C(F)F)cc2F)C1 (single isomer, unassigned) [18D*]
5. C[C@@H]1CCN(c2nnn[nH]2)C[C@H](NC(=O)N(C)c2ccc(OC(F)F)cc2)C1 (single isomer, unassigned) [11A*]
6. C[C@@H]1C[C@H](NC(=O)N(C)c2ccc(OC(F)F)cc2F)[C@H]2CC[C@@H]1N2c1nnn[nH]1 (single isomer, unassigned) [57B*]

1 to 10 µM
< 1 µM
1 to 10 µM
10 to 50 µM
< 1 µM
> 100 µM

###

Molecular target: human NLRP3 (Homo sapiens, UniProt Q96P20)
Test: Scintillation Proximity (SPA) NLRP3 Assay, displacement of 3H-MCC950
Type: binding
Details: Table B, activity class; displacement of 3H-MCC950 from human NLRP3
pIC50: −log10 of the molar value.
ATTRIBUTE MEASURED: pIC50

For the 7 molecules below, give their pIC50 values.
1. C[C@@H]1C[C@@H](NC(=O)N(C)c2ccc(C(F)F)c(F)c2)[C@H]2CC[C@@H]1N2c1nnn[nH]1 (single isomer, unassigned) [53A*]
2. C[C@H]1CCN(c2nnn[nH]2)C[C@@H](NC(=O)N(C)c2ccc(C(F)(F)F)nn2)C1 (single isomer, unassigned) [33D*]
3. C[C@H]1CCN(c2nnn[nH]2)C[C@H](NC(=O)N(C)c2c(F)cc(OC(F)F)cc2F)C1 (single isomer, unassigned) [19C*]
4. C[C@H]1CCN(c2nnn[nH]2)C[C@H](NC(=O)N(C)c2ccc(C(F)(F)F)c(F)c2)C1 (single isomer, unassigned) [9C*]
5. C[C@H]1CCN(c2nnn[nH]2)C[C@H](NC(=O)N(C)c2ccc(Cl)c(F)c2)C1 (single isomer, unassigned) [12C*]
6. C[C@@H]1CCN(c2nnn[nH]2)C[C@@H](NC(=O)N(C)c2ccc(C3CC3)cc2)C1 (single isomer, unassigned) [8B*]
7. C[C@H]1C[C@@H](NC(=O)N(C)c2ccc3cnoc3c2)CN(c2nnn[nH]2)C1 [Compound 38A]

["5.00 to 6.00", "4.00 to 4.30", "< 4.00", "< 4.00", "4.30 to 5.00", "5.00 to 6.00", "4.30 to 5.00"]

###

Exercise: for every item that follows, state its recorded IC50.
Molecular target: human NLRP3 (Homo sapiens, UniProt Q96P20)
Experiment: Scintillation Proximity (SPA) NLRP3 Assay, displacement of 3H-MCC950
Assay type: binding
Details: Table B, activity class; displacement of 3H-MCC950 from human NLRP3

Known IC50 results, listed for orientation:
- MOLECULE: "C[C@H]1CCN(c2nnn[nH]2)C[C@H](NC(=O)N(C)c2ccc(OC(F)F)c(F)c2)C1 (single isomer, unassigned) [15C*]"
  IC50: "> 100 µM"
- MOLECULE: "C[C@@H]1CCN(c2nnn[nH]2)C[C@@H](NC(=O)N(C)c2ccc(OC(F)(F)F)c(OC(F)F)c2)C1 (single isomer, unassigned) [25B*]"
  IC50: "1 to 10 µM"

// lookup IC50 for C[C@@H]1CCN(c2nnn[nH]2)C[C@@H](NC(=O)N(C)c2ccc(Cl)cn2)C1 (single isomer, unassigned) [28B*] 50 to 100 µM

###

Field: pIC50. Provide a value for each of the compounds that follow.
Target: human NLRP3 (Homo sapiens)
Experiment: Human PBMC NLRP3 Assay (LPS priming, ATP stimulation, cytokine measurement)
Format: cell-based
Design: host or cells: human PBMCs (A2); human whole blood from healthy volunteers (A3)
Settings: Table B, activity class; human PBMC, LPS + ATP
pIC50: −log10 of the molar value.

Study these solved cases before continuing.
- COMPOUND: "C[C@@H]1C[C@@H](NC(=O)N(C)c2ccc(OC(F)(F)F)c(F)c2F)[C@H]2CC[C@@H]1N2c1nnn[nH]1 (single isomer, unassigned) [59A*]"
  MEASURED TARGET: "human NLRP3 (Homo sapiens)"
  pIC50: "6.30 to 7.00"
- COMPOUND: "C[C@@H]1CCN(c2nnn[nH]2)C[C@H](NC(=O)N(C)c2ccc(Cl)cc2)C1 (single isomer, unassigned)"
  MEASURED TARGET: "human NLRP3 (Homo sapiens)"
  pIC50: "> 8.00"
- COMPOUND: "C[C@@H]1CCN(c2nnn[nH]2)C[C@H](NC(=O)N(C)c2ccc(OC(F)F)c(F)c2)C1 (single isomer, unassigned) [15A*]"
  MEASURED TARGET: "human NLRP3 (Homo sapiens)"
  pIC50: "> 8.00"
- COMPOUND: "C[C@@H]1C[C@@H](NC(=O)N(C)c2ccc(C3CC3)cc2)[C@H]2CC[C@@H]1N2c1nnn[nH]1 (single isomer, unassigned) [46A*]"
  MEASURED TARGET: "human NLRP3 (Homo sapiens)"
  pIC50: "> 8.00"
- COMPOUND: "C[C@@H]1CCN(c2nnn[nH]2)C[C@H](NC(=O)N(C)c2ccc(Cl)cc2Cl)C1 (single isomer, unassigned)"
  MEASURED TARGET: "human NLRP3 (Homo sapiens)"
  pIC50: "> 8.00"

With those in mind, consider the next compound.
Would you kindly share the measured pIC50 for C[C@@H]1CCN(c2nnn[nH]2)C[C@H](NC(=O)N(C)c2ccc(Cl)c(F)c2)C1 (single isomer, unassigned) [12A*] ? 7.00 to 8.00

###

Give IC50 for every item shown.
Molecular target: human NLRP3 (Homo sapiens)
Assay: Human Whole Blood (hWB) NLRP3 Assay (LPS/ATP, IL-1β)
Format: cell-based
Set-up: host or cells: human whole blood from healthy volunteers (A3)
Conditions: Table B, activity class
Protocol: Human whole blood is drawn from healthy volunteers after obtaining written informed consent. Heparin lithium coated tubes are used to collect blood from volunteers. Blood samples are distributed on 96 well plates using 90 μl per well. […] Activation is then performed by adding 3.3 μl of a 31×ATP solution per well. […] IL-1β levels in the supernatant were analyzed using a mesoscale discovery assay (MSD K151TUK) according to the manufacturers' instructions. […]

- COMPOUND: "C[C@@H]1C[C@@H](NC(=O)N(C)c2c(F)cc(OC(F)(F)F)cc2F)[C@H]2CC[C@@H]1N2c1nnn[nH]1 (single isomer, unassigned) [62A*]"
  IC50: "< 1000 nM"
- COMPOUND: "C[C@@H]1C[C@@H](NC(=O)N(C)c2c(F)cc(OC(F)F)cc2F)[C@H]2CC[C@@H]1N2c1nnn[nH]1 (single isomer, unassigned) [61A*]"
  IC50: "< 1000 nM"
- COMPOUND: "C[C@@H]1CCN(c2nnn[nH]2)C[C@H](NC(=O)N(C)c2cnc(C(F)(F)F)cn2)C1 (single isomer, unassigned) [32A*]"
  IC50: "> 3000 nM"
- COMPOUND: "C[C@@H]1CCN(c2nnn[nH]2)C[C@H](NC(=O)N(C)c2c(F)cc(OC(F)(F)F)cc2F)C1 (single isomer, unassigned) [41A*]"
  IC50: "< 1000 nM"
- COMPOUND: "C[C@@H]1C[C@@H](NC(=O)N(C)c2ccc(OC(F)F)cc2)[C@H]2CC[C@@H]1N2c1nnn[nH]1 (single isomer, unassigned) [42A*]"
  IC50: "< 1000 nM"

Next, consider the following compound.
Param item = C[C@@H]1C[C@@H](NC(=O)N(C)c2ccc(C3CC3)c(F)c2)[C@H]2CC[C@@H]1N2c1nnn[nH]1 (single isomer, unassigned) [54A*] ; retrieve measured IC50. < 1000 nM

###

Would you mind telling me the reported IC50 of each entry?
Molecular target: human NLRP3 (Homo sapiens, UniProt Q96P20)
Experiment: Scintillation Proximity (SPA) NLRP3 Assay, displacement of 3H-MCC950
Type: binding
Details: Table B, activity class; displacement of 3H-MCC950 from human NLRP3

- MOLECULE: "C[C@H]1C[C@@H](NC(=O)N(C)c2c(F)cc(OC(F)F)cc2F)[C@@H]2CC[C@H]1N2c1nnn[nH]1 (single isomer, unassigned) [61C*]"
  ATTRIBUTE MEASURED: "IC50"
  OBSERVED: "> 100 µM"
- MOLECULE: "C[C@@H]1CCN(c2nnn[nH]2)C[C@H](NC(=O)N(C)c2ccc(OC(F)F)c(OC(F)F)c2)C1 (single isomer, unassigned) [16A*]"
  ATTRIBUTE MEASURED: "IC50"
  OBSERVED: "< 1 µM"
- MOLECULE: "C[C@@H]1CCN(c2nnn[nH]2)C[C@@H](NC(=O)N(C)c2ccc(OC(F)F)c(OC(F)F)c2)C1 (single isomer, unassigned) [16B*]"
  ATTRIBUTE MEASURED: "IC50"
  OBSERVED: "1 to 10 µM"
- MOLECULE: "C[C@@H]1CCN(c2nnn[nH]2)C[C@H](NC(=O)N(C)c2ncc(C(F)(F)F)cn2)C1 (single isomer, unassigned) [30A*]"
  ATTRIBUTE MEASURED: "IC50"
  OBSERVED: "> 100 µM"
- MOLECULE: "C[C@H]1CCN(c2nnn[nH]2)C[C@H](NC(=O)N(C)c2ccc(C3CC3)cc2)C1 (single isomer, unassigned)"
  ATTRIBUTE MEASURED: "IC50"
  OBSERVED: "> 100 µM"

Proceed to the following item.
May I ask what IC50 has been recorded for C[C@H]1CCN(c2nnn[nH]2)C[C@H](NC(=O)N(C)c2ccc(Cl)cc2F)C1 (single isomer, unassigned) ? 50 to 100 µM

Data origin: patent US20260008768A1
